B1: CPEB3 Ribozyme (parent)
chain: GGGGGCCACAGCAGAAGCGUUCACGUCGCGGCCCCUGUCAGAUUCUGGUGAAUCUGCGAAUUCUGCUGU

Variants of: B1
Assay: self-cleavage, relative activity (ratio to wild type); higher = more cleavage; co-transcriptional
Quantity: self-cleavage
Give your answer as a number; write no unit.

Before answering, review these 3 worked examples.
Mutation String: C7A U38G
self-cleavage: 0.0677
--
Mutation String: U20G C57G
self-cleavage: 0.181
--
Mutation String: U67C G68C
self-cleavage: 1.01

Exercise: Looking for the measured self-cleavage of C24U U49A , can you help?
Key: 0.865

Exercise: And for U36A U61G ?
Key: 0.147

Exercise: And for G1U A16G ?
Key: 0.108

Exercise: And for A59U G68U ?
Key: 0.924

Exercise: And for C18G G28A ?
Key: 0.133

Exercise: And for G37A U67G ?
Key: 0.334
